B1: CPEB3 Ribozyme (parent)
chain: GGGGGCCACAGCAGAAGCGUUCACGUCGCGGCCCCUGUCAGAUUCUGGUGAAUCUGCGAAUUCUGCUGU

Variants of: B1
Test: self-cleavage, relative activity (ratio to wild type); higher = more cleavage; co-transcriptional
metric: self-cleavage
Keep the answer to the number alone.

Per the records, this variant ( C33U U64A ) has self-cleavage equal to 0.919

Per the records, this variant ( U43A U69A ) has self-cleavage equal to 0.974

Per the records, this variant ( U44C U61C ) has self-cleavage equal to 0.317

Per the records, this variant ( G4U C35U ) has self-cleavage equal to 0.128

Per the records, this variant ( A51C G68U ) has self-cleavage equal to 1.01

Per the records, this variant ( G25A G48A ) has self-cleavage equal to 0.208

Per the records, this variant ( C6A U62C ) has self-cleavage equal to 0.338

Per the records, this variant ( U36G G65C ) has self-cleavage equal to 0.25

Per the records, this variant ( G1A A42G ) has self-cleavage equal to 0.0249

Per the records, this variant ( G4A G65C ) has self-cleavage equal to 0.418

Per the records, this variant ( G14A C66G ) has self-cleavage equal to 0.287

Per the records, this variant ( G48U U49G ) has self-cleavage equal to 1.01

Per the records, this variant ( G2C A13U ) has self-cleavage equal to 0.0221

Per the records, this variant ( C29G A60C ) has self-cleavage equal to 0.108

Per the records, this variant ( G1C C24A ) has self-cleavage equal to 0.0947

Per the records, this variant ( U21G C39G ) has self-cleavage equal to 0.865

Per the records, this variant ( G31C U61G ) has self-cleavage equal to 0.158

Per the records, this variant ( G19A C27U ) has self-cleavage equal to 0.768

Per the records, this variant ( C34A G37A ) has self-cleavage equal to 0.301

Per the records, this variant ( A23U C57U ) has self-cleavage equal to 0.28

Per the records, this variant ( G3C A42U ) has self-cleavage equal to 0.0888

Per the records, this variant ( U26A C33G ) has self-cleavage equal to 0.395
